Measured GI50 on SNB-78 follows.
Counter-ions that a name gives are not always drawn.
Number in nM, nothing else.

Before answering, review these 3 worked examples.
SNB-78 / GI50 / `c1ccc(C2=C(c3ccc(OCCN4CCCCC4)cc3)c3ccc(OCCN4CCCCC4)cc3CC2)cc1` : value? 1820

SNB-78 / GI50 / `CCN(CC)CCOc1ccc(C2=C(c3ccccc3)CCc3cc(OCCN(CC)CC)ccc32)cc1` : value? 1620

SNB-78 / GI50 / `CN(C)CCCOc1ccc(C2=C(c3ccccc3)CCc3cc(OCCCN(C)C)ccc32)cc1` : value? 1780

Lab note: next molecule to report on.
SNB-78 / GI50 / CC/C(=C(\c1ccccc1)c1ccc(OCCN(C)C)cc1)c1ccccc1 [TAM, tamoxifen citrate, reference compound] : value? 13500

---

# STUDY_SYSTEM: 20S proteasome caspase-like activity (Homo sapiens, UniProt P28072)
# EXPERIMENT_NOTES: Caspase-like activity inhibition test
# Format: biochemical
# APPLIED_CONDITIONS: read-out: % Control, Caspase-like Activity
Each record is given met if its reported remaining activity at 10 µM is strictly below 40%. Records at or above 40% are given not met.

Item c1ccc(C2=C(c3ccc(OCCN4CCCCC4)cc3)c3ccc(OCCN4CCCCC4)cc3CC2)cc1 [Naforidaifen C] : remaining activity at 10 µM beneath 40%, strictly? met

Next:
Item CCN(CC)CCOc1ccc(C2=C(c3ccccc3)CCc3cc(OCCN(CC)CC)ccc32)cc1 [Naforidaifen E] : remaining activity at 10 µM beneath 40%, strictly? not met

Item c1ccc(C2=C(c3ccc(OCCN4CCOCC4)cc3)c3ccc(OCCN4CCOCC4)cc3CC2)cc1 [Naforidaifen D] : remaining activity at 10 µM beneath 40%, strictly? met

Item c1ccc(C2=C(c3ccc(OCCN4CCCC4)cc3)c3ccc(OCCN4CCCC4)cc3CC2)cc1 [Naforidaifen B] : remaining activity at 10 µM beneath 40%, strictly? met

---

# STUDY_SYSTEM: 20S proteasome (Homo sapiens, UniProt P28072+P28074+Q99436)
# EXPERIMENT_NOTES: Proteasome inhibition activity, overall judgement
# Assay type: biochemical
# APPLIED_CONDITIONS: overall judgement positive/negative
ASSAY_ENDPOINT: The evaluations (proteasome inhibition activity)

Before answering, review these 6 worked examples.
Request the reported The evaluations (proteasome inhibition activity) associated with `CN(C)CCCOc1ccc(C2=C(c3ccccc3)CCc3cc(OCCCN(C)C)ccc32)cc1` negative

Request the reported The evaluations (proteasome inhibition activity) associated with `c1ccc(C2=C(c3ccc(OCCN4CCCC4)cc3)c3ccc(OCCN4CCCC4)cc3CC2)cc1` positive

Request the reported The evaluations (proteasome inhibition activity) associated with `c1ccc(C2=C(c3ccc(OCCN4CCCCC4)cc3)c3ccc(OCCN4CCCCC4)cc3CC2)cc1` positive

Request the reported The evaluations (proteasome inhibition activity) associated with `c1ccc(C2=C(c3ccc(OCCN4CCOCC4)cc3)c3ccc(OCCN4CCOCC4)cc3CC2)cc1` positive

Request the reported The evaluations (proteasome inhibition activity) associated with `CN(C)CCOc1ccc(C2=C(c3ccccc3)CCc3cc(OCCN(C)C)ccc32)cc1` negative

Request the reported The evaluations (proteasome inhibition activity) associated with `CCN(CC)CCOc1ccc(C2=C(c3ccccc3)CCc3cc(OCCN(CC)CC)ccc32)cc1` positive

Next:
Request the reported The evaluations (proteasome inhibition activity) associated with `c1ccc(C2=C(c3ccc(OCCN4CCCCCC4)cc3)c3ccc(OCCN4CCCCCC4)cc3CC2)cc1` positive
